This listing pairs compounds with measured Ki.
ASSAY TARGET: Glutamate receptor 2 (Homo sapiens, UniProt P42262)
Sequence (P42262 whole entry): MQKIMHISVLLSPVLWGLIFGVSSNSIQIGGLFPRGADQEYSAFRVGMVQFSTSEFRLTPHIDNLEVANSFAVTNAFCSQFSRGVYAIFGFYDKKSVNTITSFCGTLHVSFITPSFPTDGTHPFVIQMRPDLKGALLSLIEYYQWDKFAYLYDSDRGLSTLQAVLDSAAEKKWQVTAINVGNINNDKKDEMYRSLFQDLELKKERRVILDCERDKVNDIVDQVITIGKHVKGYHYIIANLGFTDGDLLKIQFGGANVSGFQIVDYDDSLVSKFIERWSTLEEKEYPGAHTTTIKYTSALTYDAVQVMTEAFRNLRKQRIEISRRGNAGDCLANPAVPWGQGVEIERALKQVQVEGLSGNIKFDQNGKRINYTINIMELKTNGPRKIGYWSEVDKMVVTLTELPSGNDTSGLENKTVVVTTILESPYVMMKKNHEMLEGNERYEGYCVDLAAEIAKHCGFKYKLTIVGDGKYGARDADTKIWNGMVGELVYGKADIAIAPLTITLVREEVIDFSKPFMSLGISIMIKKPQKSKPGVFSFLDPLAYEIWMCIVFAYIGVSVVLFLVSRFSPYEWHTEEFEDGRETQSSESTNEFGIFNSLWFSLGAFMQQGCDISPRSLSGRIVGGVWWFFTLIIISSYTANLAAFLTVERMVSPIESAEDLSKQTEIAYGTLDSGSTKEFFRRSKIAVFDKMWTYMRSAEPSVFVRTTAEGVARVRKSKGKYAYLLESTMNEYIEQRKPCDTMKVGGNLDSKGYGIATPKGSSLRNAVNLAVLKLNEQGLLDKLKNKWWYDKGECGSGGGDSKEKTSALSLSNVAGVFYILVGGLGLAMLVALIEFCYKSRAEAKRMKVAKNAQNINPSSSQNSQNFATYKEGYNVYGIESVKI
PROCEDURE SUMMARY: Displacement of [3H]AMPA from homomeric recombinant GluA2 receptor (unknown origin)

{"columns": ["SMILES NOTATION", "Ki"],
 "data": [
  ["O=C(O)[C@@H]1C[C@H]2C[C@@H](Oc3cc(-c4ccc(Cl)cc4)ccc3-c3nnn[nH]3)CC[C@H]2CN1", "0.003 µM"],
  ["O=C(O)[C@@H]1C[C@H]2C[C@@H](Oc3ccc(F)cc3-c3nnn[nH]3)CC[C@H]2CN1", "2.7 µM"],
  ["Cl.O=C(O)[C@@H]1C[C@H]2C[C@@H](Cc3ccccc3-c3nnn[nH]3)CC[C@H]2CN1", "13 µM"],
  ["Cc1cccc(N[C@H]2CC[C@H]3CN[C@H](C(=O)O)C[C@H]3C2)c1-c1nnn[nH]1", "128 µM"]
]}
